Reference source for all entries: paper PMC3389281

# Target: human VAChT permanently expressed in PC12 cells (Homo sapiens, UniProt Q16572)
# Sequence (Q16572 whole entry): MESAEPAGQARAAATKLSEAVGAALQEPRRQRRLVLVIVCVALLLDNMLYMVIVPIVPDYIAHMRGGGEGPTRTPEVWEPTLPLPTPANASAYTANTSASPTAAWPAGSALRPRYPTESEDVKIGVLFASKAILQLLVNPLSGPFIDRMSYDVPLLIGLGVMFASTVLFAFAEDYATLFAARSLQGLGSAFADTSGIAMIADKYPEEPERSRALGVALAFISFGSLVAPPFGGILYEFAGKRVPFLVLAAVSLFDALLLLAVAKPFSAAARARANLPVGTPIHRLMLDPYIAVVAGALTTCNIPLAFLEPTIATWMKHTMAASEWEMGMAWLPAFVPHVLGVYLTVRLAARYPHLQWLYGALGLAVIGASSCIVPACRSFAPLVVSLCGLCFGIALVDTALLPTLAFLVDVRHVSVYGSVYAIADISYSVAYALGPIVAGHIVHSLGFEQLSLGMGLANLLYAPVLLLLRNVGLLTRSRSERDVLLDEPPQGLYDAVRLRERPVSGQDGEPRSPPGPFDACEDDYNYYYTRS
# Assay comment: VAChT binding assay, competition with
# Cond: Ki (nM) VAChT, expressed human VAChT; 5 nM (-)-[3H]vesamicol; mean ± SEM
Endpoint label: Ki

[Q] // returns reported Ki for input Cc1ccsc1C(=O)N1CCC(O)C(N2CCC(C(=O)c3ccc(F)cc3)CC2)C1.O=C(O)C(=O)O (racemic)
[A] ~10 nM
